Tested on: HNSCC-1A cells
Test: Cell death / MTT cell viability assay
Format: cell-based, human
Details: Homo sapiens, 48 hours
pIC50: −log10 of the molar value.
measure: pIC50

Per the records, this compound ( CCCCCCCCCCCCCCCCCC(=O)N[C@@H](CO)[C@H](O)/C=C/CCCCCCCCC[n+]1ccccc1.[Br-] [LCL-461, reference compound] ) has pIC50 equal to ~5.40
